molecular target: SARS-CoV-2 NSP3 macrodomain (Mac1) (Severe acute respiratory syndrome coronavirus 2); test: biochemical; format: binding; conditions: dose-response; read-out: SARS CoV-2 macrodomain HTRF assay: IC50
pIC50: −log10 of the molar value.
Please enter satisfied where pIC50 is greater than or equal to 4, and not satisfied where it is lower.

Past entries and their recorded results:
compound	class_name
CC1(C)C[C@@H](CO)N(c2ncnc3[nH]ccc23)C1.O=C(O)C(F)(F)F	satisfied
CC(Nc1ncnc2[nH]ccc12)C1(O)CCCCC1 (centres unmarked)	satisfied
OC1(CNc2ncnc3[nH]ccc23)CCC2(CC1)OCCO2	not satisfied

State whether the measured pIC50 reaches 4, counting equality as reaching it, for OCC1CCC2(CCOCC2)CN1c1ncnc2[nH]ccc12 (centres unmarked)
not satisfied

State whether the measured pIC50 reaches 4, counting equality as reaching it, for OC1(CNc2ncnc3[nH]ccc23)CCCCC1
satisfied

State whether the measured pIC50 reaches 4, counting equality as reaching it, for Cc1c[nH]c2ncnc(NCC3(O)CCOCC3)c12
not satisfied

State whether the measured pIC50 reaches 4, counting equality as reaching it, for OC[C@@H]1C[C@H](O)CN1c1ncnc2[nH]ccc12
not satisfied

State whether the measured pIC50 reaches 4, counting equality as reaching it, for OC1(CNc2ncnc3[nH]ccc23)CCCC(C(F)(F)F)C1 (centres unmarked)
not satisfied

State whether the measured pIC50 reaches 4, counting equality as reaching it, for OC1(CNc2ncnc3[nH]ccc23)CCSCC1
not satisfied

State whether the measured pIC50 reaches 4, counting equality as reaching it, for CC1CCC(O)(CNc2ncnc3[nH]ccc23)CC1 (centres unmarked)
satisfied

State whether the measured pIC50 reaches 4, counting equality as reaching it, for CN(CC1(O)CCOCC1)c1ncnc2[nH]ccc12
satisfied

State whether the measured pIC50 reaches 4, counting equality as reaching it, for OCC1C2CCC(C2)N1c1ncnc2[nH]ccc12 (centres unmarked)
satisfied

State whether the measured pIC50 reaches 4, counting equality as reaching it, for CC1CCCC(O)(CNc2ncnc3[nH]ccc23)C1 (centres unmarked)
satisfied

----------
biological target: SARS-CoV-2 NSP3 macrodomain (Mac1), P43 crystal form (Severe acute respiratory syndrome coronavirus 2); assay type: binding; details: ligand modeling in Mac1 crystal soak
quantity_kind: Number of isomers bound
Please give the numeric answer without any surrounding text.

molecule	quantity_kind	number
OCC(Nc1ncnc2[nH]ccc12)C1CC1 (stereo not shown)	Number of isomers bound	1
OC[C@@H]1C[C@H](F)CN1c1ncnc2[nH]ccc12	Number of isomers bound	1
O=C(O)C(F)(F)F.OC[C@@H]1CC2(CC2)CN1c1ncnc2[nH]ccc12	Number of isomers bound	1
OCC(CC1CCCCC1)Nc1ncnc2[nH]ccc12 (stereo not shown)	Number of isomers bound	1
OCC(CC1CCCC1)Nc1ncnc2[nH]ccc12 (stereo not shown)	Number of isomers bound	1

Which measured Number of isomers bound value corresponds to CC1CCN(c2ncnc3[nH]ccc23)C1CO (stereo not shown) ?
1

Which measured Number of isomers bound value corresponds to OCC1CC2(CCCC2)CN1c1ncnc2[nH]ccc12 (stereo not shown) ?
1

Which measured Number of isomers bound value corresponds to Cc1c[nH]c2ncnc(NCC3(O)CCC3)c12 ?
1

Which measured Number of isomers bound value corresponds to OCC(CC1CC1)Nc1ncnc2[nH]ccc12 (stereo not shown) ?
1

Which measured Number of isomers bound value corresponds to CC(C)(O)[C@@H]1CCCN1c1ncnc2[nH]ccc12 ?
1

Which measured Number of isomers bound value corresponds to O=C(O)C(F)(F)F.OC[C@H]1CC2(CN1c1ncnc3[nH]ccc13)OCCO2 ?
1

----------
# inhibition at 200 µM listing for each entry below
target: SARS-CoV-2 NSP3 macrodomain (Mac1) (Severe acute respiratory syndrome coronavirus 2); assay: biochemical; format: binding; settings: Single dose, concentration 200 μM; read-out: SARS CoV-2 macrodomain HTRF assay: Average % competition

compound	result
OCC1CC2(CCC2)CN1c1ncnc2[nH]ccc12 (stereo not shown) [AVI-3728]	79%
CN1CCN(c2ncnc3[nH]ccc23)C(CO)C1 (stereo not shown) [AVI-3721]	11%
CO[C@@H]1C[C@H](CO)N(c2ncnc3[nH]ccc23)C1 [AVI-3656]	41%
CC(C)(C)[C@@H]1CCN(c2ncnc3[nH]ccc23)[C@H](CO)C1 [AVI-3722]	22%

Which measured inhibition at 200 µM value corresponds to O=C(O)C(F)(F)F.OCC12CC(CN1c1ncnc3[nH]ccc13)C2 [AVI-3681] ?
54%

Which measured inhibition at 200 µM value corresponds to OCC1CCCN1c1ncnc2[nH]ccc12 (stereo not shown) [AVI-3685] ?
47%

Which measured inhibition at 200 µM value corresponds to OC[C@H]1CN2CCC[C@H]2CN1c1ncnc2[nH]ccc12 [AVI-3724] ?
< 10%

Which measured inhibition at 200 µM value corresponds to CC1CCN(c2ncnc3[nH]ccc23)C1CO (stereo not shown) [AVI-3655] ?
75%

Which measured inhibition at 200 µM value corresponds to O=C(O)C(F)(F)F.OC[C@@H]1CC2(CC2)CN1c1ncnc2[nH]ccc12 [AVI-3710] ?
57%

Which measured inhibition at 200 µM value corresponds to CC1(C)CCC(CO)N(c2ncnc3[nH]ccc23)C1 (stereo not shown) [AVI-3726] ?
76%

----------
# inhibition at 200 µM listing for each entry below
target: SARS-CoV-2 NSP3 macrodomain (Mac1) (Severe acute respiratory syndrome coronavirus 2, UniProt P0DTD1); test: biochemical; type: binding; settings: preliminary screen, compound at 200 μM, mean of 3-4 technical replicates; read-out: % competition in HTRF assay
Form entry: value (%) — number only.

Which measured inhibition at 200 µM value corresponds to Cc1ccc(CC(CO)Nc2ncnc3[nH]ccc23)cc1 (centres unmarked) [AVI-3683] ?
14

----------
molecular target: SARS-CoV-2 NSP3 macrodomain (Mac1) (Severe acute respiratory syndrome coronavirus 2); assay: biochemical; format: binding; conditions: from SARS CoV-2 macrodomain HTRF assay
# Ligand efficiency (binding enery per heavy atom) listing for each entry below

molecule	measured_target	result
OC1(CNc2ncnc3[nH]ccc23)CC2CCC1CC2 (centres unmarked) [AVI-4320]	SARS-CoV-2 NSP3 macrodomain (Mac1) (Severe acute respiratory syndrome coronavirus 2)	0.28
O=S1(=O)CCCC(O)(CNc2ncnc3[nH]ccc23)C1 (centres unmarked) [AVI-4317]	SARS-CoV-2 NSP3 macrodomain (Mac1) (Severe acute respiratory syndrome coronavirus 2)	0.28
C[C@H]1CC[C@H](CO)N(c2ncnc3[nH]ccc23)C1 (racemic) [AVI-4063]	SARS-CoV-2 NSP3 macrodomain (Mac1) (Severe acute respiratory syndrome coronavirus 2)	0.33
OCC1C=CCCN1c1ncnc2[nH]ccc12 (centres unmarked) [AVI-5998]	SARS-CoV-2 NSP3 macrodomain (Mac1) (Severe acute respiratory syndrome coronavirus 2)	0.31
OCC1CCC2(CCOCC2)CN1c1ncnc2[nH]ccc12 (centres unmarked) [AVI-4065]	SARS-CoV-2 NSP3 macrodomain (Mac1) (Severe acute respiratory syndrome coronavirus 2)	0.21
CC1(C)CCC(O)(CNc2ncnc3[nH]ccc23)CC1 [AVI-4310]	SARS-CoV-2 NSP3 macrodomain (Mac1) (Severe acute respiratory syndrome coronavirus 2)	0.29
CN(CC1(O)CCOCC1)c1ncnc2[nH]ccc12 [AVI-4318]	SARS-CoV-2 NSP3 macrodomain (Mac1) (Severe acute respiratory syndrome coronavirus 2)	0.30
OC1(CNc2ncnc3[nH]ccc23)COC2CC1C2 (centres unmarked) [AVI-4313]	SARS-CoV-2 NSP3 macrodomain (Mac1) (Severe acute respiratory syndrome coronavirus 2)	0.29
OC[C@@H]1C[C@@H]2CCC[C@@H]2N1c1ncnc2[nH]ccc12 [AVI-3720]	SARS-CoV-2 NSP3 macrodomain (Mac1) (Severe acute respiratory syndrome coronavirus 2)	0.33
CC1CCCC(O)(CNc2ncnc3[nH]ccc23)C1 (centres unmarked) [AVI-4307]	SARS-CoV-2 NSP3 macrodomain (Mac1) (Severe acute respiratory syndrome coronavirus 2)	0.32

Kindly review the next molecule as well.
Which measured Ligand efficiency (binding enery per heavy atom) value corresponds to OC1(CNc2ncnc3[nH]ccc23)CCCOC1 (centres unmarked) [AVI-4311] ?
0.29

----------
target: SARS-CoV-2 NSP3 macrodomain (Mac1), P43 crystal form (Severe acute respiratory syndrome coronavirus 2); type: binding; conditions: ligand modeling in Mac1 crystal soak
# Number of isomers bound listing for each entry below
Please give the numeric answer without any surrounding text.

Guide cases for Number of isomers bound, answers given:
compound	Number of isomers bound
C#CCC(CO)Nc1ncnc2[nH]ccc12 (stereo not shown) [AVI-3644]	1
CN1CCN(c2ncnc3[nH]ccc23)C(CO)C1 (stereo not shown) [AVI-3721]	1
OCC1CC2(CCC2)CN1c1ncnc2[nH]ccc12 (stereo not shown) [AVI-3728]	1
C[C@@H](O)[C@H](CO)Nc1ncnc2[nH]ccc12.O=C(O)C(F)(F)F [AVI-3730]	1
O=C(O)C1CCCN1S(=O)(=O)c1cccc2nsnc12 (stereo not shown) [AVI-2]	1
OCC(CC1OCCO1)Nc1ncnc2[nH]ccc12 (stereo not shown) [AVI-3658]	1
Cn1cc(CC(CO)Nc2ncnc3[nH]ccc23)cn1 (stereo not shown) [AVI-3657]	1
CCC(Nc1ncnc2[nH]ccc12)C(C)(C)O (stereo not shown) [AVI-3667]	1
O=C(O)C(F)(F)F.OCC12CC(CN1c1ncnc3[nH]ccc13)C2 [AVI-3681]	1
OCC(Cc1ccccn1)Nc1ncnc2[nH]ccc12 (stereo not shown) [AVI-3696]	2

Which measured Number of isomers bound value corresponds to Cc1sc2ncnc(Sc3ccccc3C(=O)O)c2c1C [AVI-317] ?
1

Which measured Number of isomers bound value corresponds to CCC(CC)(CO)Nc1ncnc2[nH]ccc12 [AVI-3695] ?
1

Which measured Number of isomers bound value corresponds to OCC(CC1CCCO1)Nc1ncnc2[nH]ccc12 (stereo not shown) [AVI-3660] ?
1

Which measured Number of isomers bound value corresponds to OC(c1ccccc1)C1CCCN1c1ncnc2[nH]ccc12 (stereo not shown) [AVI-3652] ?
1

Which measured Number of isomers bound value corresponds to CC1(C)C[C@@H](CO)N(c2ncnc3[nH]ccc23)C1.O=C(O)C(F)(F)F [AVI-3704] ?
1

Which measured Number of isomers bound value corresponds to OCC(Nc1ncnc2[nH]ccc12)c1ccco1 (stereo not shown) [AVI-3659] ?
1

Which measured Number of isomers bound value corresponds to CC1CCN(C(=O)c2ccc3c(c2)nc(CO)n3C)CC1C(=O)O (stereo not shown) [AVI-348] ?
1

Which measured Number of isomers bound value corresponds to OCC(Nc1ncnc2[nH]ccc12)C1CCc2ccccc21 (stereo not shown) [AVI-3693] ?
2

Which measured Number of isomers bound value corresponds to CCC1(O)CCN(c2ncnc3[nH]ccc23)C1 (stereo not shown) [AVI-612] ?
1

Which measured Number of isomers bound value corresponds to CC(C)(C)CC(CO)Nc1ncnc2[nH]ccc12 (stereo not shown) [AVI-3648] ?
1

Which measured Number of isomers bound value corresponds to Cc1ccc(CC(CO)Nc2ncnc3[nH]ccc23)cc1 (stereo not shown) [AVI-3683] ?
2

Which measured Number of isomers bound value corresponds to OCC1COCCN1c1ncnc2[nH]ccc12 (stereo not shown) [AVI-3717] ?
2
